# Test system: Salmonella typhimurium
# assayOverview: Mutagenic activity in Salmonella typhimurium by Ames test
# Format: toxicity, organism-based
# runConditions: salmonella enterica subsp. enterica serovar typhimurium
assayEndpoint: Activity

chemicalSmiles: CN(C)/C(=N/c1ccc2c(c1)C(=O)c1ccc(/N=C(\C3CCC3)N(C)C)cc1C2=O)C1CCC1
result: Non-toxic

chemicalSmiles: CCN(CC)/C(C)=N/c1ccc2c(c1)C(=O)c1ccc(/N=C(\C)N(CC)CC)cc1C2=O
result: Non-toxic

chemicalSmiles: C/C(=N\c1ccc2c(c1)C(=O)c1ccc(/N=C(\C)N(C)C)cc1C2=O)N(C)C
result: Non-toxic

chemicalSmiles: CN(C)/C(=N/c1ccc2c(c1)C(=O)c1ccc(/N=C(\C3CC3)N(C)C)cc1C2=O)C1CC1
result: Non-toxic

Continue with the next compound.
Give its Activity value. Item: `CN(C)/C(=N/c1ccc2c(c1)C(=O)c1ccc(/N=C(\c3ccc(Cl)cc3)N(C)C)cc1C2=O)c1ccc(Cl)cc1`
Non-toxic
